tested on: Streptococcus pneumoniae; test: Antibacterial activity against penicillin intermediate-resistant Streptococcus pneumoniae isolate I1 by agar dilution method; format: functional

>  <molSmiles>
CC[C@H]1OC(=O)[C@H](C)C(=O)[C@H](C)[C@@H](O[C@@H]2O[C@H](C)C[C@H](N(C)C)[C@H]2O)[C@](C)(OC)C[C@@H](C)/C(=N\OC/C=C/c2cnc3ccccc3c2)[C@H](C)[C@@H](O)[C@]1(C)O

>  <MIC / µg/mL>
64

$$$$
>  <molSmiles>
CC[C@H]1OC(=O)[C@H](C)C(=O)[C@H](C)[C@@H](O[C@@H]2O[C@H](C)C[C@H](N(C)C)[C@H]2O)[C@](C)(OC)C[C@@H](C)/C(=N\OC/C=C/c2cncnc2)[C@H](C)[C@@H](O)[C@]1(C)O

>  <MIC / µg/mL>
128

$$$$
>  <molSmiles>
CC[C@H]1OC(=O)[C@H](C)C(=O)[C@H](C)[C@@H](O[C@@H]2O[C@H](C)C[C@H](N(C)C)[C@H]2O)[C@](C)(OC)C[C@@H](C)/C(=N\OC/C=C/c2cccc(OC)c2)[C@H](C)[C@@H](O)[C@]1(C)O

>  <MIC / µg/mL>
64

$$$$
>  <molSmiles>
CC[C@H]1OC(=O)[C@H](C)C(=O)[C@H](C)[C@@H](O[C@@H]2O[C@H](C)C[C@H](N(C)C)[C@H]2O)[C@](C)(OC)C[C@@H](C)/C(=N\OC/C=C/c2cccs2)[C@H](C)[C@@H](O)[C@]1(C)O

>  <MIC / µg/mL>
32

$$$$
>  <molSmiles>
CC[C@H]1OC(=O)[C@H](C)C(=O)[C@H](C)[C@@H](O[C@@H]2O[C@H](C)C[C@H](N(C)C)[C@H]2O)[C@](C)(OC)C[C@@H](C)/C(=N\OC/C=C/c2cncc3ccccc23)[C@H](C)[C@@H](O)[C@]1(C)O

>  <MIC / µg/mL>
32

$$$$
>  <molSmiles>
CC[C@H]1OC(=O)[C@H](C)C(=O)[C@H](C)[C@@H](O[C@@H]2O[C@H](C)C[C@H](N(C)C)[C@H]2O)[C@](C)(OC)C[C@@H](C)/C(=N\OC/C=C/c2ccc(OC)c(OC)c2)[C@H](C)[C@@H](O)[C@]1(C)O

>  <MIC / µg/mL>
32

$$$$
>  <molSmiles>
CC[C@H]1OC(=O)[C@H](C)C(=O)[C@H](C)[C@@H](O[C@@H]2O[C@H](C)C[C@H](N(C)C)[C@H]2O)[C@](C)(OC)C[C@@H](C)/C(=N\OC/C=C/c2ccc3[nH]ccc3c2)[C@H](C)[C@@H](O)[C@]1(C)O

>  <MIC / µg/mL>
32

$$$$
>  <molSmiles>
CC[C@H]1OC(=O)[C@H](C)C(=O)[C@H](C)[C@@H](O[C@@H]2O[C@H](C)C[C@H](N(C)C)[C@H]2O)[C@](C)(OC)C[C@@H](C)/C(=N\OC/C=C/c2cccc(C3OCCO3)c2)[C@H](C)[C@@H](O)[C@]1(C)O

>  <MIC / µg/mL>
64

$$$$

---

Reported MIC is given for each of the following molecules.
test system: Staphylococcus aureus; test: Antibacterial activity against methicillin-resistant Staphylococcus aureus 3 by agar dilution method; type: functional
outcomeMeasure: MIC (µg/mL)

>  <molSmiles>
CC[C@H]1OC(=O)[C@H](C)C(=O)[C@H](C)[C@@H](O[C@@H]2O[C@H](C)C[C@H](N(C)C)[C@H]2O)[C@](C)(OC)C[C@@H](C)/C(=N\OC/C=C/c2cnc3ccccc3c2)[C@H](C)[C@@H](O)[C@]1(C)O

>  <readoutNumber>
0.25

$$$$
>  <molSmiles>
CC[C@H]1OC(=O)[C@H](C)C(=O)[C@H](C)[C@@H](O[C@@H]2O[C@H](C)C[C@H](N(C)C)[C@H]2O)[C@](C)(OC)C[C@@H](C)/C(=N\OC/C=C/c2cccs2)[C@H](C)[C@@H](O)[C@]1(C)O

>  <readoutNumber>
0.25

$$$$
>  <molSmiles>
CC[C@H]1OC(=O)[C@H](C)C(=O)[C@H](C)[C@@H](O[C@@H]2O[C@H](C)C[C@H](N(C)C)[C@H]2O)[C@](C)(OC)C[C@@H](C)/C(=N\OC/C=C/c2ccc3c(c2)CCC3=O)[C@H](C)[C@@H](O)[C@]1(C)O

>  <readoutNumber>
1

$$$$
>  <molSmiles>
CC[C@H]1OC(=O)[C@H](C)C(=O)[C@H](C)[C@@H](O[C@@H]2O[C@H](C)C[C@H](N(C)C)[C@H]2O)[C@](C)(OC)C[C@@H](C)/C(=N\OC/C=C/c2ccc(OC)cc2)[C@H](C)[C@@H](O)[C@]1(C)O

>  <readoutNumber>
2

$$$$
>  <molSmiles>
CC[C@H]1OC(=O)[C@H](C)C(=O)[C@H](C)[C@@H](O[C@@H]2O[C@H](C)C[C@H](N(C)C)[C@H]2O)[C@](C)(OC)C[C@@H](C)/C(=N\OC/C=C/c2cncnc2)[C@H](C)[C@@H](O)[C@]1(C)O

>  <readoutNumber>
0.5

$$$$
>  <molSmiles>
CC[C@H]1OC(=O)[C@H](C)C(=O)[C@H](C)[C@@H](O[C@@H]2O[C@H](C)C[C@H](N(C)C)[C@H]2O)[C@](C)(OC)C[C@@H](C)/C(=N\OC/C=C/c2cccc(OC)c2)[C@H](C)[C@@H](O)[C@]1(C)O

>  <readoutNumber>
2

$$$$
>  <molSmiles>
CC[C@H]1OC(=O)[C@H](C)C(=O)[C@H](C)[C@@H](O[C@@H]2O[C@H](C)C[C@H](N(C)C)[C@H]2O)[C@](C)(OC)C[C@@H](C)/C(=N\OC/C=C/c2cncc3ccccc23)[C@H](C)[C@@H](O)[C@]1(C)O

>  <readoutNumber>
0.5

$$$$
>  <molSmiles>
CC[C@H]1OC(=O)[C@H](C)C(=O)[C@H](C)[C@@H](O[C@@H]2O[C@H](C)C[C@H](N(C)C)[C@H]2O)[C@](C)(OC)C[C@@H](C)/C(=N\OC/C=C/c2ccc3[nH]ccc3c2)[C@H](C)[C@@H](O)[C@]1(C)O

>  <readoutNumber>
1

$$$$
>  <molSmiles>
CC[C@H]1OC(=O)[C@H](C)C(=O)[C@H](C)[C@@H](O[C@@H]2O[C@H](C)C[C@H](N(C)C)[C@H]2O)[C@](C)(OC)C[C@@H](C)/C(=N\OC/C=C/c2ccc3c(c2)OCO3)[C@H](C)[C@@H](O)[C@]1(C)O

>  <readoutNumber>
1

$$$$
